- measurementNotes: Cytotoxicity against mouse RAW264.7 cells assessed as cell viability at 40 uM after 24 hrs by MTT assay relative to control
- Assay type: cell-based
- cond: read-out: Activity

# smilesStr, viability at 24 h, 40 µM
measured = [
    ("CC1(C)[C@@H](O)CC[C@]2(C)[C@H]3C(=O)C=C4[C@H]5C[C@@](C)(C(=O)O)CC[C@]5(C)CC[C@@]4(C)[C@]3(C)CC[C@@H]12", "> 96%"),
    ("CC1(C)[C@@H](O[C@H]2O[C@H](C(=O)O)[C@@H](O)[C@H](O)[C@H]2O[C@@H]2O[C@H](C(=O)O)[C@@H](O)[C@H](O)[C@H]2O)CC[C@]2(C)[C@H]3C(=O)C=C4[C@@H]5C[C@@](C)(C(=O)O)CC[C@]5(C)CC[C@@]4(C)[C@]3(C)CC[C@@H]12", "> 96%"),
]

* * *

- measurementNotes: Cytotoxicity against mouse RAW264.7 cells assessed as cell viability at 40 uM after 24 hrs by MTT assay relative to control
- Assay type: cell-based
- cond: read-out: Activity
Catalogue of viability at 24 h, 40 µM values

# smilesStr, viability at 24 h, 40 µM
rows = [
    ("CC1(C)[C@@H](O)CC[C@]2(C)[C@H]3C(=O)C=C4[C@@H]5C[C@@](C)(C(=O)O)CC[C@]5(C)CC[C@@]4(C)[C@]3(C)CC[C@@H]12", "> 96%"),
    ("CC1(C)[C@@H](O[C@H]2O[C@H](C(=O)O)[C@@H](O)[C@H](O)[C@H]2O)CC[C@]2(C)[C@H]3C(=O)C=C4[C@@H]5C[C@@](C)(C(=O)O)CC[C@]5(C)CC[C@@]4(C)[C@]3(C)CC[C@@H]12", "> 96%"),
    ("CC1(C)[C@@H](O[C@H]2O[C@H](C(=O)O)[C@@H](O)[C@H](O)[C@H]2O)CC[C@]2(C)[C@H]3C(=O)C=C4[C@H]5C[C@@](C)(C(=O)O)CC[C@]5(C)CC[C@@]4(C)[C@]3(C)CC[C@@H]12", "> 96%"),
    ("CC1(C)[C@@H](O[C@H]2O[C@H](C(=O)O)[C@@H](O)[C@H](O)[C@H]2O[C@@H]2O[C@H](C(=O)O)[C@@H](O)[C@H](O)[C@H]2O)CC[C@]2(C)[C@H]3C(=O)C=C4[C@H]5C[C@@](C)(C(=O)O)CC[C@]5(C)CC[C@@]4(C)[C@]3(C)CC[C@@H]12", "> 96%"),
]
